ASSAY_SUMMARY: in vivo
Parameters: species or system SD rats
EXPERIMENTAL_SETUP: male, Sprague-Dawley, rat, in vivo; 105 in plasma, IV 1 mg/kg, mean; read-out: Vss
READOUT_LABEL: Vd

## Task I'd like to know its Vd. The compound in question is CCN1CCN(C(=O)C2C3CCC(O3)C2C(=O)O)CC1 (stereo not shown)
## Result 0.215 L/kg

---

ASSAY_SUMMARY: Pharmacokinetic study of 151 (iv, oral) in SD rats: 151 and 100 in plasma
Assay type: in vivo
EXPERIMENTAL_SETUP: male, Sprague-Dawley, rat, in vivo, iv, 1 mg/kg, plasma, 151 IV 1.0 mg/kg, SD rats, mean; read-out: T1/2 of 151 (converted)
READOUT_LABEL: half-life

## Task Fill in: half-life of COC(=O)C1C2CCC(O2)C1C(=O)N1CCN(C)CC1 (stereo not shown) is ___
## Result 53.4 min

---

ASSAY_SUMMARY: in vivo
Parameters: species or system SD rats
EXPERIMENTAL_SETUP: male, SD, rat, in vivo, iv, 1 mg/kg, IV 1 mg/kg, 0.25 hr, mean; read-out: plasma concentration of 105
READOUT_LABEL: concentration at 0.25 hr (ng/mL)
All answers are understood in ng/mL, so give the number only.

## Task Reported concentration at 0.25 hr, compound CCN1CCN(C(=O)C2C3CCC(O3)C2C(=O)O)CC1 (stereo not shown) [Compound 105] : ____
## Result 1730

---

ASSAY_SUMMARY: in vivo
EXPERIMENTAL_SETUP: male, SD, rat, iv, 1.4 mg/kg, plasma concentration of Endothal
READOUT_LABEL: concentration at 2 hr (ng/mL)
Write down the numeric answer in ng/mL and omit the unit.

## Task Consider the compound O=C(O)C1C2CCC(O2)C1C(=O)O (stereo not shown) [Endothal] and give its measured concentration at 2 hr.
## Result 30.4

---

ASSAY_SUMMARY: in vivo
EXPERIMENTAL_SETUP: male, SD, rat, iv, 1.4 mg/kg, plasma concentration of 100
READOUT_LABEL: concentration at 0.25 hr (ng/mL)
Number only, in ng/mL; omit the unit.

## Task // returns reported concentration at 0.25 hr for input CN1CCN(C(=O)C2C3CCC(O3)C2C(=O)O)CC1 (stereo not shown) [Compound 100]
## Result 510

---

ASSAY_SUMMARY: in vivo
EXPERIMENTAL_SETUP: male, Sprague-Dawley, rat, po, 1.4 mg/kg
READOUT_LABEL: Cmax
Respond with a number, then the unit of measure.

## Task Entry CN1CCN(C(=O)C2C(C(=O)OCC(Cl)(Cl)Cl)[C@H]3CC[C@@H]2O3)CC1 (stereo partly shown) [Compound 113] has what Cmax?
## Result 17.7 ng/mL

---

ASSAY_SUMMARY: in vivo
EXPERIMENTAL_SETUP: male, SD, rat, po, 1.4 mg/kg, plasma concentration of 113
READOUT_LABEL: concentration at 2 hr (ng/mL)
Give just the number in ng/mL; leave the unit off.

## Task Look at this compound and give its reported concentration at 2 hr. CN1CCN(C(=O)C2C(C(=O)OCC(Cl)(Cl)Cl)[C@H]3CC[C@@H]2O3)CC1 (stereo partly shown)
## Result 2.15
